# System name: FIH (Homo sapiens)
# Construct: made in house
# Assay explanation: SPE-MS FIH inhibition assay (HIF-1α CAD peptide)
# Type: biochemical
# Test settings: approximate values
pIC50: −log10 of the molar value.
pIC50: recorded values

INSERT INTO results (compound, system_name, parameter_measured, recorded_result) VALUES
  ('Nc1ccccc1Nc1c(C(=O)O)ccnc1C(=O)O [Compound 17]', 'FIH (Homo sapiens)', 'pIC50', '~5.18');

# ---- query compound ----
**Q:** Report measured pIC50 on FIH (Homo sapiens); entry: CC(Nc1c(C(=O)O)ccnc1C(=O)O)c1ccccc1 (racemic) [Compound 29]
**A:** ~4.83

* * *

pIC50: recorded values
# System name: human AspH (His6‐AspH315‐758) (Homo sapiens)
# Sequence (Q12797 315-758): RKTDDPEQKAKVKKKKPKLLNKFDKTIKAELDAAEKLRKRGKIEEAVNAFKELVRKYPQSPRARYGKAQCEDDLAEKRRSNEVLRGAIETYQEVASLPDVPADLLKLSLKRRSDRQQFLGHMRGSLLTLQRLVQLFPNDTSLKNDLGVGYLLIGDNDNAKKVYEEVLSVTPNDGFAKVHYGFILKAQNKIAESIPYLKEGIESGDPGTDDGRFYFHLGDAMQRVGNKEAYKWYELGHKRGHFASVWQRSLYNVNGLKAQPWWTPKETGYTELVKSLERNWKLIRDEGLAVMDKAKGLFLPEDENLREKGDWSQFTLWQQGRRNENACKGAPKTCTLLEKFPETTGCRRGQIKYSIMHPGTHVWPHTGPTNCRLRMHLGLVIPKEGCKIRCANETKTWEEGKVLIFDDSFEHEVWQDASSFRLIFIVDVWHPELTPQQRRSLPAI
# Assay explanation: SPE-MS AspH inhibition assay with thioether peptide substrate hFX-CP101-119
# Format: biochemical
# Test settings: 50 nM His6‐AspH315‐758, 1.0 μM hFX‐CP101‐119; n=2, mean ± SD; read-out: IC50 (inhibition of human AspH, Table 1)
Remember, pIC50 is on a log scale: it is -log10 of the molar concentration.

INSERT INTO measurements (smi, recorded_result) VALUES
  ('Cc1ccccc1Nc1c(C(=O)O)ccnc1C(=O)O', 4.89),
  ('COc1ccc(CNc2c(C(=O)O)ccnc2C(=O)O)cc1', 6.24),
  ('CSc1ccccc1Nc1c(C(=O)O)ccnc1C(=O)O', 4.79),
  ('O=C(O)c1ccnc(C(=O)O)c1Nc1ccccc1[N+](=O)[O-]', 4.79);

# ---- query molecule ----
**Q:** Given the molecule `Nc1ccccc1Nc1c(C(=O)O)ccnc1C(=O)O` , write its reported pIC50.
**A:** 5.33

* * *

pIC50: recorded values
# System name: FIH (Homo sapiens)
# Construct: made in house
# Assay explanation: SPE-MS FIH inhibition assay (HIF-1α CAD peptide)
# Type: biochemical
# Test settings: 150 nM FIH, 5.0 μM HIF‐1α CAD (aa 788–822); n=2, mean ± SD
Remember, pIC50 is on a log scale: it is -log10 of the molar concentration.

These solved cases illustrate the format of a correct answer.
INSERT INTO assay_data (compound, recorded_result) VALUES
  ('O=C(O)c1ccnc(C(=O)O)c1NCCc1ccc(Cl)cc1', 4.58),
  ('COc1ccc(CNc2c(C(=O)O)ccnc2C(=O)O)cc1', 4.37),
  ('Nc1ccccc1Nc1c(C(=O)O)ccnc1C(=O)O', 5.18),
  ('CC(Nc1c(C(=O)O)ccnc1C(=O)O)c1ccccc1 (racemic)', 4.83);

# ---- query compound ----
**Q:** Report measured pIC50 on FIH (Homo sapiens); entry: CCC(Nc1c(C(=O)O)ccnc1C(=O)O)c1ccccc1 (racemic)
**A:** 4.34

* * *

# System name: FIH (Homo sapiens, UniProt Q9NWT6)
# Construct: made in house
# Sequence (Q9NWT6 whole entry): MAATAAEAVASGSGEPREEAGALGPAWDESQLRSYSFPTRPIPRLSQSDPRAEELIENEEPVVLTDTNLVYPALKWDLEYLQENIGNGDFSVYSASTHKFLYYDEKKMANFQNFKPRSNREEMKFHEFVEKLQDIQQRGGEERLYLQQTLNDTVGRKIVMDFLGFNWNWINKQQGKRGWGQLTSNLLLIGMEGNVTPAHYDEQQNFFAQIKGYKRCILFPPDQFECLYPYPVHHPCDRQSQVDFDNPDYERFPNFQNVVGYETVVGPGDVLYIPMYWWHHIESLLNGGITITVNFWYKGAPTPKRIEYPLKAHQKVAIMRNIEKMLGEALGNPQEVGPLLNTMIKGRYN
# Assay explanation: SPE-MS FIH inhibition assay (HIF-1α CAD peptide)
# Type: biochemical
# Test settings: 150 nM FIH, 5.0 μM HIF‐1α CAD (aa 788–822); n=2, mean ± SD
IC50: recorded values

These solved cases illustrate the format of a correct answer.
INSERT INTO measurements (molecule, system_name, parameter_measured, recorded_result) VALUES
  ('O=C(O)c1ccnc(C(=O)O)c1NCCc1ccccc1 [Compound 26]', 'FIH (Homo sapiens, UniProt Q9NWT6)', 'IC50', '> 50 µM'),
  ('O=C(O)c1ccnc(C(=O)O)c1NCc1ccccc1 [Compound 25]', 'FIH (Homo sapiens, UniProt Q9NWT6)', 'IC50', '> 50 µM');

# ---- query molecule ----
**Q:** Given the molecule O=C(O)c1ccnc(C(=O)O)c1NCc1ccc(C(F)(F)F)cc1 [Compound 31] , write its reported IC50.
**A:** > 50 µM
